- system: trypsin
- protocol.description: monoclonal phage TRF
property.label: Tryspin binding signal (FU)
Please respond with the number in FU and leave the unit unwritten.

Recorded results for 3 binders are shown here.
KB_B12 (scFv, V domains shown) VH: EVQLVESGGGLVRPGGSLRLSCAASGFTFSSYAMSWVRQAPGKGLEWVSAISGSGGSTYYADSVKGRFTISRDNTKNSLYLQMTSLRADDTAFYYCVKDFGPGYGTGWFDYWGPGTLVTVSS VL: TQPPSVSEAPRQRVTITCGERPCPRILMRCKQDSDCLAGCVCGPNGFCGANNWYQQLPGSSPTTVIYEDNQRPSGVPDRFSGSIDSSSNSASLTISGLKTEDEADYYCQSYDSSNQVFGGGTKVTVLG : 17400
KB_A02 (scFv, V domains shown) VH: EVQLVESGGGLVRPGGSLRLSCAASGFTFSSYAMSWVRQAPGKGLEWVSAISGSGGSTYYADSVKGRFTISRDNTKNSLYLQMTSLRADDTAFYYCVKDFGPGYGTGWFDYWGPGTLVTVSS VL: AVNWYQQLPGKAPKLLIYAAAKCPRILMRCKQDSDCLAGCVCGPNGFCGGASGVSDRFSGSIDSSSNSASLTISGLKPEDEGDYYCQSYDSSNRWVFGGGTKVTVLG : 183000
KB_C07 (scFv, V domains shown) VH: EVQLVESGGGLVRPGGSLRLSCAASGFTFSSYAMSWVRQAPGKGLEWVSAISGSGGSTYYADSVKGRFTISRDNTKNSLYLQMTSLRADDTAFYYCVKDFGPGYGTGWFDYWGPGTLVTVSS VL: AVNWYQQLPGKAPKLLIYAAVGCPRILMRCKQDSDCLAGCVCGPNGFCGSASGVSDRFSGSKSGTSASLAISGLRSEDEADYYCASWDDSLRGYVFGTGTKVTVLG : 43300

Continue with the next binder.
Problem: Bench note: what Tryspin binding signal (FU) did KB_B10 (scFv, V domains shown) VH: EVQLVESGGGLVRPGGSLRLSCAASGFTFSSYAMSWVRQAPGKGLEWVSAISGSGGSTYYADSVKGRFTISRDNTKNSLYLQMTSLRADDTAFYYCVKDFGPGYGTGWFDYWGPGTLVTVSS VL: QSVLTQLPSVSEAPRQRVTITCGRAMCPRILMRCKQDSDCLAGCVCGPNGFCGTGNWYQQHPGKAPKLIIFDVSKRPSGVPDRFSASKSGNTASLTISGLQAEDEADYYCNSYTSSNTWVFGGGTQLTVLG show?
Result: 9270
